# PROTOCOL SUMMARY: Intrinsic clearance in beagle dog microsomes
# Assay type: ADME, Canis lupus familiaris, Microsome
REPORTED METRIC: CLint scaled

INSERT INTO assay_data (smiles_structure, observed_value) VALUES
  ('Fc1cccc(-c2nc3cnn(Cc4cc(-c5ccc(C(F)(F)F)cc5C(F)(F)F)no4)cc-3n2)c1F', '< 10 mL/min/kg');

====

Each entry below carries its recorded clearance.
# PROTOCOL SUMMARY: Clearance in CD rat at 0.5 mg/kg, iv by LC/MS/MS analysis
# Format: ADME, organism-based
# Design: dose 0.5 mg/kg, route intravenous
# MEASUREMENT CONDITIONS: in vivo
REPORTED METRIC: clearance (mL/min/kg)

INSERT INTO results (smiles_structure, observed_value) VALUES
  ('Fc1cccc(-c2nc3cnn(Cc4ccc(-c5ccc(C(F)(F)F)cc5C(F)(F)F)nc4)cc-3n2)c1F', 9),
  ('Fc1cccc(-c2nc3cnn(Cc4cc(-c5ccc(C(F)(F)F)cc5C(F)(F)F)no4)cc-3n2)c1F', 3);
